Here we list molecules with their recorded pIC50 when tested on Substance-P receptor (Cavia porcellus).
Sequence (P30547 whole entry): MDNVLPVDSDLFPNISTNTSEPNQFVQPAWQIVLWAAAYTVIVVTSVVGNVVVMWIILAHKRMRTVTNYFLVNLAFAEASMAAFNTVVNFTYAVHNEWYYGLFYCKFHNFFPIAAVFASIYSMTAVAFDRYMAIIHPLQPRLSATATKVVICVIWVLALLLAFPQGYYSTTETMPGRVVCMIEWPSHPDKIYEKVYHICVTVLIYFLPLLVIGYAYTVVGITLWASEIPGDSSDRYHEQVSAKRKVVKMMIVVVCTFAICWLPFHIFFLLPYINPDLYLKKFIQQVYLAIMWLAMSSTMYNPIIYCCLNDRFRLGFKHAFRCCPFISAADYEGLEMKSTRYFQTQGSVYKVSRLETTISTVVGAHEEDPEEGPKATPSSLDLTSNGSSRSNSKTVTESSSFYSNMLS
Numbers only, as −log10 of the molar value.

Kindly give each listed record's pIC50.
1. COc1cc(C(=O)N2CCC(CCN3CCC(C(N)=O)(c4ccccc4)CC3)(c3cccnc3)C2)cc(OC)c1OC (stereo not drawn)
2. COc1cc(C(=O)N2CCC(CCN3CCC(C(N)=O)(c4ccccc4)CC3)(c3cccc(Cl)c3)C2)cc(OC)c1OC (stereo not drawn)
3. COc1cc(C(=O)N2CCC(CCN3CCC(C(N)=O)(c4ccc(F)cc4)CC3)(c3ccc(Cl)c(Cl)c3)C2)cc(OC)c1OC (stereo not drawn)

-- reply
1. 6.25
2. 7.97
3. 7.87

###

# SUBJECT_OF_TEST: UniProt P30547
OBSERVATION_TYPE: pIC50
Answers are plain numbers, as −log10 of the molar value.

Past entries and their recorded results:
                                   compound  test_result
0  COc1cc(C(=O)N2CCC(CCN3CCC(C(=O)NCCN4CCOCC4)(c4ccccc4)CC3)(c3ccc(Cl)c(Cl)c3)C2)cc(OC)c1OC (configuration not stated)         8.12
1  COc1cc(C(=O)N2CCC(CCN3CCC(C(N)=O)(c4cccnc4)CC3)(c3ccc(Cl)c(Cl)c3)C2)cc(OC)c1OC (configuration not stated)         8.09
2  COc1cc(C(=O)N2CC[C@](CCN3CCC(C(=O)N4CCOCC4)(c4ccccc4)CC3)(c3ccc(Cl)c(Cl)c3)C2)cc(OC)c1OC.Cl         8.36

Kindly give each listed record's pIC50.
1. COc1cc(C(=O)N2CC[C@](CCN3CCC(C(N)=O)(c4ccncc4)CC3)(c3ccc(Cl)c(Cl)c3)C2)cc(OC)c1OC.Cl
2. COc1cc(C(=O)N2CC[C@](CCN3CCC(C(N)=O)(c4ccccc4)CC3)(c3ccc(Cl)c(Cl)c3)C2)cc(OC)c1OC.Cl
3. COc1cc(C(=O)N2CCC(CCN3CCC(C(N)=O)(c4ccccc4)CC3)(c3ccc(Cl)cc3)C2)cc(OC)c1OC (configuration not stated)
4. COc1ccc(C2(CCN3CCC(C(N)=O)(c4ccccc4)CC3)CCN(C(=O)c3cc(OC)c(OC)c(OC)c3)C2)cc1OC (configuration not stated)

-- reply
1. 8.60
2. 8.51
3. 8.06
4. 7.44

###

I'd appreciate it if you could supply solubility values for the items below.
# ASSAY_OVERVIEW: The solubility in a […] phosphate buffer solution at pH 7.4
# Assay type: ADME
Numbers only, in µg/mL.

                  compound_structure_string  result_unit  test_result
0  COc1cc(C(=O)N2CC[C@](CCN3CCC(C(=O)N4CCN(C)CC4)(c4ccccc4)CC3)(c3ccc(Cl)c(Cl)c3)C2)cc(OC)c1OC.Cl        µg/mL          426
1  COc1cc(C(=O)N2CC[C@](CCN3CCC(C(N)=O)(c4ccccc4)CC3)(c3ccc(Cl)c(Cl)c3)C2)cc(OC)c1OC.Cl        µg/mL           70
2  COc1cc(C(=O)N2CC[C@](CCN3CCC(C(N)=O)(c4ccncc4)CC3)(c3ccc(Cl)c(Cl)c3)C2)cc(OC)c1OC.Cl        µg/mL          408
3  COc1cc(C(=O)N2CC[C@](CCN3CCC(C(N)=O)(c4cccnc4)CC3)(c3ccc(Cl)c(Cl)c3)C2)cc(OC)c1OC.Cl        µg/mL          548
4  COc1cc(C(=O)N2CC[C@](CCN3CCC(C(=O)N4CCOCC4)(c4ccccc4)CC3)(c3ccc(Cl)c(Cl)c3)C2)cc(OC)c1OC.Cl        µg/mL           25

Okay, now this molecule:
-- ask Report solubility for COc1cc(C(=O)N2CC[C@](CCN3CCC(C(=O)N4CCN(C)CC4)(c4cccnc4)CC3)(c3ccc(Cl)c(Cl)c3)C2)cc(OC)c1OC.Cl please.
-- reply 1200
